Target: Protein cereblon/Wee1-like protein kinase (Homo sapiens, UniProt P30291+Q96SW2)
Sequence (P30291 whole entry, looked up): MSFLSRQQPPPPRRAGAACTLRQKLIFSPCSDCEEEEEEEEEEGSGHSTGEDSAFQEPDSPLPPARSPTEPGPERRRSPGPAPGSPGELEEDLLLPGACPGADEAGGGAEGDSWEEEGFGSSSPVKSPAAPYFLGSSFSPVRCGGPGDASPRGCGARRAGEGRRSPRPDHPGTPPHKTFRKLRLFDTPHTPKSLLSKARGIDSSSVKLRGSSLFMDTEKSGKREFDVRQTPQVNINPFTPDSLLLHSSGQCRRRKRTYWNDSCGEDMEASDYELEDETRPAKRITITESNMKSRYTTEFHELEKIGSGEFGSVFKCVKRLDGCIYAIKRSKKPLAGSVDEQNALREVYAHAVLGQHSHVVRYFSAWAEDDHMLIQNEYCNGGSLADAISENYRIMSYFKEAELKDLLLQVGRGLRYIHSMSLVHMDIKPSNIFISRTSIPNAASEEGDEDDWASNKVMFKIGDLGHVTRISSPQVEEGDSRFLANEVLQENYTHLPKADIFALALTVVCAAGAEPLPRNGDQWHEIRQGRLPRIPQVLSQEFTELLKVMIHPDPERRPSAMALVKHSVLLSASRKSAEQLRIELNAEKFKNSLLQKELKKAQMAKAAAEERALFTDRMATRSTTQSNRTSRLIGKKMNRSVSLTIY
Sequence (Q96SW2 whole entry, looked up): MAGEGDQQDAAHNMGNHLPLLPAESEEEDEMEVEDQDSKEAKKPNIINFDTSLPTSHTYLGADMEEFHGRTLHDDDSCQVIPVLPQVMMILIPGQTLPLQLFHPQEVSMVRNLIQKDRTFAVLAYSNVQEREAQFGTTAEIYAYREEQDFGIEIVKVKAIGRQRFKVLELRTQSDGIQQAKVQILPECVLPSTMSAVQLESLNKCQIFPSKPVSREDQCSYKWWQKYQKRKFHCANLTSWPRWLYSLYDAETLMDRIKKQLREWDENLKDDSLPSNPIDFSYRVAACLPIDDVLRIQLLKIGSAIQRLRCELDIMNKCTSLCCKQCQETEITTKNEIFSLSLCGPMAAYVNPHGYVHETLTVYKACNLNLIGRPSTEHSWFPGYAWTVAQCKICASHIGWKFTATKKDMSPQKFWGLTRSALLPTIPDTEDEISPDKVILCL
Assay: PROTAC activity at CRBN/Wee1 in human MV4-11 cells assessed as residual Wee1 level at IC50 measured after 6 hrs by Western blot analysis (reference value: 100%)
Format: cell-based
Mark 0 for Activity values under 40%, and 1 for everything at or above.

{"COMPOUND": "C=CCn1c(=O)c2cnc(Nc3ccc(N4CCN(CC(=O)NCCCNc5cccc6c5C(=O)N(C5CCC(=O)NC5=O)C6=O)CC4)cc3)nc2n1-c1cccc(C(C)(C)O)n1 (stereo not given)", "GROUP": 0}
{"COMPOUND": "C=CCn1c(=O)c2cnc(Nc3ccc(N4CCN(CC(=O)NCCOCCOCCOCCOCCOCCNc5cccc6c5C(=O)N(C5CCC(=O)NC5=O)C6=O)CC4)cc3)nc2n1-c1cccc(C(C)(C)O)n1 (stereo not given)", "GROUP": 0}
{"COMPOUND": "C=CCn1c(=O)c2cnc(Nc3ccc(N4CCN(CC(=O)NCCCCC(=O)NCCOc5cccc6c5C(=O)N(C5CCC(=O)NC5=O)C6=O)CC4)cc3)nc2n1-c1cccc(C(C)(C)O)n1 (stereo not given)", "GROUP": 0}
{"COMPOUND": "C=CCn1c(=O)c2cnc(Nc3ccc(N4CCN(CC(=O)NCCOCCOCCOCCOCCOCCOCCOCCOCCNc5cccc6c5C(=O)N(C5CCC(=O)NC5=O)C6=O)CC4)cc3)nc2n1-c1cccc(C(C)(C)O)n1 (stereo not given)", "GROUP": 0}
{"COMPOUND": "C=CCn1c(=O)c2cnc(Nc3ccc(N4CCN(CC(=O)NCCCCC(=O)NCc5ccc(COc6cccc7c6C(=O)N(C6CCC(=O)NC6=O)C7=O)cc5)CC4)cc3)nc2n1-c1cccc(C(C)(C)O)n1 (stereo not given)", "GROUP": 1}
